- Read-out: Interleukin-8 (IL8), CXCL8 (gene 3576)
- ASSAY_EXPLANATION: BSK_SAg_IL8: BioMAP Diversity Plus: SAg Assay for Interleukin-8 (IL8) Biomarker Activity (AID 2283094)
- TEST_CONDITIONS: primary human HUVEC with PBMC; actives raise or lower the signal
Calls of active or inactive are those of the source. How the source made its calls: active means hit-call score of the fitted dose curve at least 0.9, where 1 is the maximum; inactive means score below 0.9.
Labels: 1 for active, -1 for inactive

1. Cn1sc(Cl)cc1=O
1
2. CCCCC(CC)CO[N+](=O)[O-] (configuration not stated)
-1
3. CCOP(=S)(OCC)Oc1nc(Cl)c(Cl)cc1Cl
1
4. Cc1ccccc1N
-1
5. Nc1cccc2ccccc12
-1
6. CC12CC1(C)C(=O)N(c1cc(Cl)cc(Cl)c1)C2=O (configuration not stated)
-1
7. Oc1c(I)cc(I)cc1I
1
8. COC[C@H](C)N(C(=O)CCl)c1c(C)csc1C
-1
9. C(=NC1CCCCC1)=NC1CCCCC1
1
10. CC(=O)C(Cl)C(=O)N(C)C (configuration not stated)
1
11. Nc1ncc([N+](=O)[O-])s1
-1
12. CCCCCCCCC(=O)NCc1ccc(O)c(OC)c1
-1
13. COc1cc(OC)nc(NC(=O)NS(=O)(=O)c2ncccc2C(=O)N(C)C)n1
-1
14. BrCCBr
-1
15. O=C(OC1CCCCC1)c1ccccc1C(=O)OC1CCCCC1
1
16. O=Cc1cccc(Oc2ccccc2)c1
-1
17. OCc1ccco1
-1
18. C[C@@H]1C[C@@H]([C@H](O)CC2CC(=O)NC(=O)C2)C(=O)[C@@H](C)C1
1
19. C=CC(=O)OCCCCCC(C)C
-1
20. O=[N+]([O-])c1ccc2c3c(cccc13)CC2
-1
21. CC(C)c1ccc(CO)cc1
-1
22. CCNc1nc(NC(C)(C)C)nc(SC)n1
-1
23. CCCCCCCCc1ccc(O)cc1
1
24. CCC(=O)C(CC(C)N(C)C)(c1ccccc1)c1ccccc1 (configuration not stated)
-1
25. O=c1[nH]c(=O)[nH]c(=O)[nH]1
1
26. CC(=O)[O][Hg][c]1ccccc1
1
27. O=C(O)C(Cl)(Cl)Cl
-1
28. CC(C)(C)CC(C)(C)c1ccc(O)cc1
1
29. CCOP(=S)(OCC)SCCS(=O)(=O)CC
-1
30. COC(=O)Cc1ccccc1
-1
31. CCSC(C)CC1CC(=O)C(C(CC)=NOC/C=C/Cl)=C(O)C1 (configuration not stated)
-1
32. Oc1cccc2cccnc12
-1
33. ClC1=C(Cl)[C@]2(Cl)[C@H]3[C@H]([C@H]4C=C[C@H]3C4)[C@@]1(Cl)C2(Cl)Cl
-1
34. C=C(C)C(=O)[O][Sn]([CH2]CCC)([CH2]CCC)[CH2]CCC
1
35. Nc1ccc(-c2ccc(N)c(Cl)c2)cc1Cl
-1
36. O=C(O)C(F)(F)C(F)(F)C(F)(F)C(F)(F)C(F)(F)C(F)(F)F
-1
37. CCOP(=S)(OCC)Oc1ccc(S(C)=O)cc1 (configuration not stated)
-1
38. CC(C)(OO)c1ccccc1
-1
39. CCOP(=S)(OCC)SCSP(=S)(OCC)OCC
-1
40. NC(=O)O
-1
41. CC(C)(c1ccccc1)c1ccc(O)c(C(C)(C)c2ccccc2)c1
1
42. ClCC(Cl)CCl
-1
